Tested on: c-myc in Human AML MV4-11 cells
Experiment: Inhibition of cMYC expression in cancer cell lines (mRNA, real-time PCR)
Format: cell-based
Details: Homo sapiens, 3 h, cMYC mRNA normalized to Cyclophilin
pIC50: −log10 of the molar value.
Listed below: pIC50 values for each entry.
observed-property: pIC50

INSERT INTO measurements (compound_smiles, study_system, observed_property, reported) VALUES
  ('Cc1noc(C)c1-c1c[nH]c(=O)c(NCc2ccc(C(F)(F)F)cc2)c1', 'c-myc in Human AML MV4-11 cells', 'pIC50', '4.52 to 5.52'),
  ('Cc1noc(C)c1-c1c[nH]c(=O)c(NCc2ccc(F)cc2)c1', 'c-myc in Human AML MV4-11 cells', 'pIC50', '5.52 to 6.52'),
  ('Cc1noc(C)c1-c1c[nH]c(=O)c(NCc2cccc3ncccc23)c1', 'c-myc in Human AML MV4-11 cells', 'pIC50', '5.52 to 6.52'),
  ('Cc1noc(C)c1-c1c[nH]c(=O)c(NCc2ccsc2)c1', 'c-myc in Human AML MV4-11 cells', 'pIC50', '5.52 to 6.52'),
  ('Cc1noc(C)c1-c1c[nH]c(=O)c(NCc2ccc(C#N)s2)c1', 'c-myc in Human AML MV4-11 cells', 'pIC50', '4.52 to 5.52');

---

Listed below: IC50 values for each entry.
Target: Brd4 bromodomain 1 (BRD4(1)) (Homo sapiens, UniProt O60885)
Test: Inhibition of tetra-acetylated histone H4 binding to BET bromodomain (HTRF/FRET)
Conditions: His-tagged bromodomain 200 nM, tetra-acetylated histone H4 peptide, 2 h room temperature
observed-property: IC50

INSERT INTO assay_data (compound_smiles, study_system, reported) VALUES
  ('Cc1noc(C)c1-c1c[nH]c(=O)c(NCc2ccc3ccccc3n2)c1', 'Brd4 bromodomain 1 (BRD4(1)) (Homo sapiens, UniProt O60885)', '≤ 300 nM'),
  ('Cc1noc(C)c1-c1c[nH]c(=O)c(NCc2ccc(Cl)s2)c1', 'Brd4 bromodomain 1 (BRD4(1)) (Homo sapiens, UniProt O60885)', '≤ 300 nM'),
  ('Cc1noc(C)c1-c1c[nH]c(=O)c(NCc2ccccn2)c1', 'Brd4 bromodomain 1 (BRD4(1)) (Homo sapiens, UniProt O60885)', '≤ 300 nM'),
  ('Cc1noc(C)c1-c1c[nH]c(=O)c(Nc2ccc(F)cc2)c1', 'Brd4 bromodomain 1 (BRD4(1)) (Homo sapiens, UniProt O60885)', '300 to 3000 nM');
